test system: HSC-2; assay: In vitro cytotoxicity assay (WST-8 cell viability, 5 days); format: cell-based; details: Homo sapiens, HSC-2, read-out: In vitro cytotoxicity (IC50) HSC-2, non-conjugated compounds, Table 7A
IC50 values by entry
The response must be a number in nM with no trailing unit.

Smiles record: CC[C@@]1(O)C(=O)OCc2c1cc1n(c2=O)Cc2c-1nc1cc(F)c(C)cc1c2CCl
IC50 / nM: 4
//
Smiles record: CC[C@@]1(O)C(=O)OCc2c1cc1n(c2=O)Cc2c-1nc1cc(F)c(C)cc1c2CNC(=O)CO
IC50 / nM: 4

# next compound below
Value of measured IC50 for the entry CC[C@@]1(O)C(=O)OCc2c1cc1n(c2=O)Cc2c-1nc1cc(F)c(C)cc1c2CN(Cc1ccccc1)C(=O)CO : 1

---

pIC50 values by entry
test system: HSC-2; assay: In vitro cytotoxicity assay (WST-8 cell viability, 5 days); assay type: cell-based; conditions: Homo sapiens, HSC-2, read-out: In vitro cytotoxicity (IC50) HSC-2, non-conjugated compounds, Table 7B
FYI, pIC50 means -log10 of a concentration in mol per litre.

Compound: CC[C@@]1(O)C(=O)OCc2c1cc1n(c2=O)Cc2c-1nc1cc(F)c(C)cc1c2CSCCSC [Compound 8p]
Target system: HSC-2
pIC50: 9.22

# next compound below
Value of measured pIC50 for the entry CC[C@@]1(O)C(=O)OCc2c1cc1n(c2=O)Cc2c-1nc1cc(F)c(C)cc1c2CCCCO [Compound 8a] : 9.30

---

Tested on: HSC-2
Test: In vitro cytotoxicity assay (WST-8 cell viability, 5 days)
Assay type: cell-based
Settings: Homo sapiens, HSC-2, read-out: In vitro cytotoxicity (IC50) HSC-2, non-conjugated compounds, Table 7A
Method: Cytotoxic potencies were assessed in flat-bottomed 96 well plates (Costar) using a water-soluble tetrazonium salt (WST-8) based cell viability assay (Dojindo, Molecular Technologies, Inc.) as previously described (Kovtun Y V, et al. Antibody-maytansinoid conjugates designed to bypass multidrug resistance. Cancer Res 2010; 70(6):2528-37). […] Cell viability was determined from background-corrected WST-8 absorbance.
Assay readout: pIC50
FYI, pIC50 means -log10 of a concentration in mol per litre.

Compound: CC[C@@]1(O)C(=O)OCc2c1cc1n(c2=O)Cc2c-1nc1cc(F)c(SC)cc1c2CCl [Compound 4b]
pIC50: 8.52

Value of measured pIC50 for the entry CC[C@@]1(O)C(=O)OCc2c1cc1n(c2=O)Cc2c-1nc1cc(F)c(C)cc1c2CS(=O)(=O)CCO [Compound 34b] : 8.52

Value of measured pIC50 for the entry CC[C@@]1(O)C(=O)OCc2c1cc1n(c2=O)Cc2c-1nc1cc(F)c(C)cc1c2CCCCO [Compound 8a] : 9.22

Value of measured pIC50 for the entry CC[C@@]1(O)C(=O)OCc2c1cc1n(c2=O)Cc2c-1nc1cc(F)c(C)cc1c2CNC(=O)CCCCCSC [Compound 35a] : 8.15

Value of measured pIC50 for the entry CC[C@@]1(O)C(=O)OCc2c1cc1n(c2=O)Cc2c-1nc1cc(F)c(C)cc1c2CCCCSC [Compound 33a] : 8.70

Value of measured pIC50 for the entry CC[C@@]1(O)C(=O)OCc2c1cc1n(c2=O)Cc2c-1nc1cc(F)c(SC)cc1c2CNC(=O)CO [Compound 7b] : 8.15

Value of measured pIC50 for the entry CC[C@@]1(O)C(=O)OCc2c1cc1n(c2=O)Cc2c-1nc1cc(F)c(C)cc1c2C[S+]([O-])CCO (stereo partly shown) [Compound 34a] : 8.05
